Values from patent US10604484B2

Biological target: GluA1o-γ8 (Homo sapiens, UniProt P42261+Q8WXS5)
Construct: expressed in transfected cells
Sequence (P42261+Q8WXS5 fused): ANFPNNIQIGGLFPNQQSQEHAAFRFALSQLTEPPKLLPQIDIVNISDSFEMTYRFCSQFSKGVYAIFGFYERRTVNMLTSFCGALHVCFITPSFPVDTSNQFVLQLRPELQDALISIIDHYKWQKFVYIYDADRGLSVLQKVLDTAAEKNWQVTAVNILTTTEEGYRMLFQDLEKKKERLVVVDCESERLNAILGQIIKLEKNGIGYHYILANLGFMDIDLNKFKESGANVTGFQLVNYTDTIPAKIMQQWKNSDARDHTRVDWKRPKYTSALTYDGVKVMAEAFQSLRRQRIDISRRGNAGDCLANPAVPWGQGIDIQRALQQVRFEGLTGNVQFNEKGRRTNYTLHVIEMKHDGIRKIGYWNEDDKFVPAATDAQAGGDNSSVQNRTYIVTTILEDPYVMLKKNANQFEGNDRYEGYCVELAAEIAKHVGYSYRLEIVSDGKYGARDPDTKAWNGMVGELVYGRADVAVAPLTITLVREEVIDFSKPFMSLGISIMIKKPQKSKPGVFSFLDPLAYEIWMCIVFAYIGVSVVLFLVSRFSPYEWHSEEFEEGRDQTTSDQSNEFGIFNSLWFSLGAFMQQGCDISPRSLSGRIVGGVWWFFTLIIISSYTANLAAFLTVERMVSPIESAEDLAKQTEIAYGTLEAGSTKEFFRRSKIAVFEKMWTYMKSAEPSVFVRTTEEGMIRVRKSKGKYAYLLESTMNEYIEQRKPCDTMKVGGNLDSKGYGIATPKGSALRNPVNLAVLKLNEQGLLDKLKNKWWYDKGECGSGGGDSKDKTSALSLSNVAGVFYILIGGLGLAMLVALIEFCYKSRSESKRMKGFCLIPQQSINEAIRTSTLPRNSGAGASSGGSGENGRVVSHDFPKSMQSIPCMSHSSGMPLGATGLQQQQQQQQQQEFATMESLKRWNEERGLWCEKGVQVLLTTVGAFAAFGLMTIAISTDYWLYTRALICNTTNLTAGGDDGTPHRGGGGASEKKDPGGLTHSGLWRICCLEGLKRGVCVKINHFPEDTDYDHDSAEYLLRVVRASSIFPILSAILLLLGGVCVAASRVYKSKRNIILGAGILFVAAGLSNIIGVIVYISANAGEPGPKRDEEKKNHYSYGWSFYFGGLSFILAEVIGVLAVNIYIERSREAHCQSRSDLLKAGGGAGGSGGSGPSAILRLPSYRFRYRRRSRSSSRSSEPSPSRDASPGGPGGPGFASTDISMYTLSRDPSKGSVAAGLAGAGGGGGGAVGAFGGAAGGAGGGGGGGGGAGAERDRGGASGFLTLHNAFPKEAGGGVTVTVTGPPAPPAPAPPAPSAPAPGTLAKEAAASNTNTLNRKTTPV
Assay: Calcium flux assay (FLIPR), inhibition of glutamate response of GluA1o-γ8 channel in HEK293 cells
Assay type: cell-based
Settings: HEK293 cells stably expressing GRIA1o-CACNG8 fusion; 15 μM glutamate; pIC50 = negative log of the IC50 in molar; read-out: GluR1-γ8 pIC50 (converted)
measured endpoint: IC50 (nM)

>  <test smiles>
COc1nccc(C)c1-c1cc(Cl)c2c(c1)CC(=O)N2

>  <measured endpoint>
IC50

>  <unit symbol>
nM

>  <observed result>
7.94

$$$$
>  <test smiles>
CC(C)(C#N)c1cccc(Cl)c1-c1cc(F)c2c(c1)CC(=O)N2

>  <measured endpoint>
IC50

>  <unit symbol>
nM

>  <observed result>
25.1

$$$$
>  <test smiles>
Cc1cc(-c2c(C)ccnc2C)cc2c1NC(=O)C2

>  <measured endpoint>
IC50

>  <unit symbol>
nM

>  <observed result>
631

$$$$
>  <test smiles>
CCc1cc(-c2c(Cl)cncc2Cl)cc2c1NC(=O)C2

>  <measured endpoint>
IC50

>  <unit symbol>
nM

>  <observed result>
5.01

$$$$
>  <test smiles>
COc1cc(-c2c(Cl)cccc2OC(F)(F)F)cc2c1NC(=O)C2

>  <measured endpoint>
IC50

>  <unit symbol>
nM

>  <observed result>
0.794

$$$$

[P] Cc1cc(-c2cccc(C#N)c2C)cc2c1NC(=O)C2
[Q] Cc1cc(-c2c(C)ccnc2Cl)cc2c1NC(=O)C2
[R] CCc1cc(-c2c(C)cccc2F)cc2c1NC(=O)C2
[S] CC(C)(C#N)c1cccc(Cl)c1-c1cc(Cl)c2c(c1)CC(=O)N2
[T] Cc1cc(-c2c(C)cccc2OC(F)F)cc2c1NC(=O)C2
Rank entries according to their IC50, from the largest number down. To answer, arrange all of the labels according to the requested order.
P, Q, T, R, S
(P: 100 nM, Q: 15.8 nM, T: 3.16 nM, R: 1.58 nM, S: 0.158 nM)

###

Biological target: GluA1o-γ8 (Homo sapiens, UniProt P42261+Q8WXS5)
Construct: expressed in transfected cells
Assay: Calcium flux assay (FLIPR), inhibition of glutamate response of GluA1o-γ8 channel in HEK293 cells
Type: cell-based
Details: HEK293 cells stably expressing GRIA1o-CACNG8 fusion; 15 μM glutamate; pIC50 = negative log of the IC50 in molar; read-out: GluR1-γ8 pIC50 (converted)
measured endpoint: IC50 (nM)

>  <compound>
Cc1cc(-c2c(F)cccc2Cl)cc2c1NC(=O)C2 [Example 141]

>  <tgt>
GluA1o-γ8 (Homo sapiens, UniProt P42261+Q8WXS5)

>  <IC50 (nM)>
2

$$$$
>  <compound>
N#CCc1cccc(Cl)c1-c1ccc2c(c1)CC(=O)N2 [Example 6]

>  <tgt>
GluA1o-γ8 (Homo sapiens, UniProt P42261+Q8WXS5)

>  <IC50 (nM)>
31.6

$$$$
>  <compound>
O=C1Cc2cc(-c3c(Cl)cncc3OC(F)F)cc(Cl)c2N1 [Example 158]

>  <tgt>
GluA1o-γ8 (Homo sapiens, UniProt P42261+Q8WXS5)

>  <IC50 (nM)>
7.94

$$$$
>  <compound>
O=C1Cc2cc(-c3c(Cl)cccc3OC(F)(F)F)cc(OC(F)(F)F)c2N1 [Example 177]

>  <tgt>
GluA1o-γ8 (Homo sapiens, UniProt P42261+Q8WXS5)

>  <IC50 (nM)>
0.2

$$$$
>  <compound>
Cc1cc(-c2c(C)cccc2C(F)(F)F)cc2c1NC(=O)C2 [Example 137]

>  <tgt>
GluA1o-γ8 (Homo sapiens, UniProt P42261+Q8WXS5)

>  <IC50 (nM)>
1.26

$$$$

[1] Cc1cc(-c2c(C)cncc2C)cc2c1NC(=O)C2 [Example 148]
[2] Cc1cc(-c2c(Cl)cccc2C(C)(C)C#N)cc2c1NC(=O)C2 [Example 132]
Higher IC50 between 1 and 2 ? Kindly give the label for the entry you pick.
1
(1: 10 nM, 2: 0.501 nM)

[A] Cc1cc(-c2c(Cl)cccc2OC(F)F)cc2c1NC(=O)C2 [Example 128]
[B] O=C1Cc2cc(-c3c(Cl)cccc3OC(F)F)cc(Cl)c2N1 [Example 154]
[C] N#Cc1ccc(Cl)c(-c2ccc3c(c2)CC(=O)N3)c1OC(F)(F)F [Example 115]
Rank entries according to their IC50, from the largest number down. To answer, arrange all of the labels according to the requested order.
C, A, B
(C: 12.6 nM, A: 1 nM, B: 0.316 nM)

###

// values below are reported GluR1-γ8 pIC50
Target: GluA1o-γ8 (Homo sapiens, UniProt P42261+Q8WXS5)
Construct: expressed in transfected cells
Test: Calcium flux assay (FLIPR), inhibition of glutamate response of GluA1o-γ8 channel in HEK293 cells
Assay type: cell-based
Details: HEK293 cells stably expressing GRIA1o-CACNG8 fusion; 15 μM glutamate; pIC50 = negative log of the IC50 in molar
Reply briefly: the number, and no unit.

>  <test smiles>
Cc1cccc(C)c1-c1ccc2c(c1)CC(=O)N2

>  <observed result>
6.4

$$$$
>  <test smiles>
O=C1Cc2cc(-c3c(Cl)cccc3OC(F)(F)F)ccc2N1

>  <observed result>
7.8

$$$$
>  <test smiles>
Cc1cc(-c2c(Cl)cccc2OC(F)(F)F)cc2c1NC(=O)C2

>  <observed result>
9.7

$$$$

Read the next record carefully.
Would you kindly share the measured GluR1-γ8 pIC50 for Cc1cc(-c2c(Cl)cncc2OC(F)F)cc2c1NC(=O)C2 ?
8.1

###

Biological target: GluA1o-γ8 (Homo sapiens, UniProt P42261+Q8WXS5)
Construct: expressed in transfected cells
Assay: Calcium flux assay (FLIPR), inhibition of glutamate response of GluA1o-γ8 channel in HEK293 cells
Type: cell-based
Conditions: HEK293 cells stably expressing GRIA1o-CACNG8 fusion; 15 μM glutamate; pIC50 = negative log of the IC50 in molar; read-out: GluR1-γ8 pIC50 (converted)
measured endpoint: IC50 (nM)

// below: answered compounds
>  <test smiles>
O=C1Cc2cc(-c3c(Cl)cncc3OC(F)(F)F)cc(Cl)c2N1

>  <IC50, nM>
6.31

$$$$
>  <test smiles>
Cc1cc(-c2c(Cl)ccnc2Cl)cc2c1NC(=O)C2

>  <IC50, nM>
3.16

$$$$
>  <test smiles>
Cc1cc(-c2c(Cl)ccc(C#N)c2OC(F)(F)F)cc2c1NC(=O)C2

>  <IC50, nM>
0.126

$$$$

[I] N#Cc1ccc(OC(F)(F)F)c(-c2cc(F)c3c(c2)CC(=O)N3)c1Cl
[II] Cc1cc(-c2c(C)cccc2Cl)cc2c1NC(=O)C2
# query: argmin of IC50 over I and II Kindly give the label for the entry you pick.
II
(II: 0.398 nM, I: 12.6 nM)

[P] Cc1cc(-c2c(Cl)cccc2C#N)cc2c1NC(=O)C2
[Q] COc1cccc(OC(F)F)c1-c1cc(C)c2c(c1)CC(=O)N2
[R] Cc1cccc(OC(F)F)c1-c1cc(F)c2c(c1)CC(=O)N2
Rank entries according to their IC50, from the largest number down. To answer, arrange all of the labels according to the requested order.
R, Q, P

[1] Cc1ccnc(Cl)c1-c1cc(Cl)c2c(c1)CC(=O)N2
[2] Cc1cccc(F)c1-c1cc(Cl)c2c(c1)CC(=O)N2
Higher IC50 between 1 and 2 ? Kindly give the label for the entry you pick.
1
(1: 6.31 nM, 2: 0.794 nM)

[a] COc1cccc(F)c1-c1cc(C)c2c(c1)CC(=O)N2
[b] CCc1cc(-c2c(C)cccc2C#N)cc2c1NC(=O)C2
# query: argmin of IC50 over a and b Kindly give the label for the entry you pick.
b

###

Target: GluA1o-γ8 (Homo sapiens, UniProt P42261+Q8WXS5)
Construct: expressed in transfected cells
Assay: Calcium flux assay (FLIPR), inhibition of glutamate response of GluA1o-γ8 channel in HEK293 cells
Type: cell-based
Details: HEK293 cells stably expressing GRIA1o-CACNG8 fusion; 15 μM glutamate; pIC50 = negative log of the IC50 in molar; read-out: GluR1-γ8 pIC50 (converted)
Method: This assay was used to test compounds for their ability to inhibit TARP γ8 dependent AMPA receptor activity. The AMPA receptor is a non-selective cation channel activated by glutamate. […] An in vitro assay was used to determine the potency of test compounds as inhibitors of the glutamate response of the channel formed by GluA1o-γ8. […] Calcium flux following the addition of 15 μM glutamate was monitored using a Molecular Devices FLIPR Tetra. […]
measured endpoint: IC50 (nM)

// below: answered molecules
>  <molecule>
CCc1cc(-c2c(C)cncc2C)cc2c1NC(=O)C2 [Example 173]

>  <unit symbol>
nM

>  <IC50>
15.8

$$$$
>  <molecule>
O=C1Cc2cc(-c3c(Cl)cncc3Cl)cc(Cl)c2N1 [Example 159]

>  <unit symbol>
nM

>  <IC50>
7.94

$$$$
>  <molecule>
N#Cc1cc(-c2c(Cl)cccc2OC(F)(F)F)cc2c1NC(=O)C2 [Example 175]

>  <unit symbol>
nM

>  <IC50>
0.631

$$$$

[A] Cc1cccc(C#N)c1-c1cc(Cl)c2c(c1)CC(=O)N2 [Example 164]
[B] CCc1cc(-c2c(C)cccc2C(F)(F)F)cc2c1NC(=O)C2 [Example 172]
# query: argmin of IC50 over A and B Kindly give the label for the entry you pick.
B
